Values from patent EP4483954A1

Target: TRB2(h) (Homo sapiens)
Sequence (Q92519 1-343): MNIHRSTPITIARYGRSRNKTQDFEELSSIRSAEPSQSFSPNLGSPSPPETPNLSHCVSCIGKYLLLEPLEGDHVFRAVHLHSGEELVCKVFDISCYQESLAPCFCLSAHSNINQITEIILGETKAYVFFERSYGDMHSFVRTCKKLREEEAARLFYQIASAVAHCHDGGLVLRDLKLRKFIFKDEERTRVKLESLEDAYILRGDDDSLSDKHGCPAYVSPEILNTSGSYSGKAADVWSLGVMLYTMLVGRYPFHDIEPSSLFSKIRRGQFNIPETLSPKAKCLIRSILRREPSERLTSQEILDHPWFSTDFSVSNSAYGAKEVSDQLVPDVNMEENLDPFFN
pIC50: −log10 of the molar value.
READOUT: pIC50

// worked examples, pIC50 included
compound="COc1cc(-c2csc3ccc(-c4cnn(C)c4)nc23)ccn1 [Preparative Example 17]" measured="5.52 to 6.30"
compound=Cn1cc(-c2ccc3scc(-c4cnn(Cc5ccccc5)c4)c3n2)cn1 measured="5.52 to 6.30"

Inquiry: Note down pIC50 recorded for Cc1cc2scc(-c3ccncc3)c2nc1-c1cnn(C)c1 [Preparative Example 150]
Reply text: 5.52 to 6.30

Inquiry: Specify pIC50 for Cc1cnccc1-c1csc2ccc(-c3cnn(C)c3)nc12 [Preparative Example 32] and stop.
Reply text: 5.00 to 5.52

Inquiry: Tell us which pIC50 value is on record for Cn1ncc(-c2ccc3scc(-c4ccncc4)c3n2)c1CC1CC1 [Preparative Example 82]
Reply text: 6.30 to 7.00

Inquiry: Kindly indicate its recorded pIC50. Item: Cc1sc2ccc(-c3cnn(C)c3)nc2c1-c1ccncc1 [Preparative Example 142]
Reply text: 5.52 to 6.30

Inquiry: Recall and state the measured pIC50 for Cn1cc(-c2ccc3scc(-c4ccnc(F)c4)c3n2)cn1 [Preparative Example 22] .
Reply text: 6.30 to 7.00
